Each recorded value in this set is attributed to patent US10457703B2.

- subject-of-test: human FXR (NR1H4) (Homo sapiens (Human), UniProt Q96RI1)
- Sequence (Q96RI1 whole entry, the tested form may be a part): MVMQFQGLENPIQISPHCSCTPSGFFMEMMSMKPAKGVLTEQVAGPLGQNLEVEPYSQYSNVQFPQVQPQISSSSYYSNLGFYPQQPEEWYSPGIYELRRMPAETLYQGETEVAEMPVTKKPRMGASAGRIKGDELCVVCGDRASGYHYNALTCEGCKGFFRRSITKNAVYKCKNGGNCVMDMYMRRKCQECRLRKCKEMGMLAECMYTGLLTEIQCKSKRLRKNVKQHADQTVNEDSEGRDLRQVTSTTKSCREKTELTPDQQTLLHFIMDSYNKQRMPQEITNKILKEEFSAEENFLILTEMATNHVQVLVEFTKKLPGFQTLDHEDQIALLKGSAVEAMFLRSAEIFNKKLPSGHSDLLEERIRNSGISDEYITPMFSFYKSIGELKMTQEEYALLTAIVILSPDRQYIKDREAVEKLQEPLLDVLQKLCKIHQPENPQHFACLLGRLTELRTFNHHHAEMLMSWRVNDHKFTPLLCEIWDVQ
- assay-name: Human FXR (NR1H4) Assay (Gal4 promoter driven luciferase reporter, Indigo Bioscience kit)
- test-parameters: Human FXR (NR1H4) Assay, potency ranges
pEC50: −log10 of the molar value.
reported-endpoint: pEC50

compound: CC[C@H]1[C@@H](O)[C@@H]2[C@H](CC[C@]3(C)[C@@H]([C@H](C)CCOC(=O)NS(=O)(=O)c4cccc(C(C)(C)C)c4)CC[C@@H]23)[C@@]2(C)CC[C@@H](O)C[C@@H]12 [Example 54]
pEC50: 6.00 to 7.00
//
compound: CC[C@H]1[C@@H](O)[C@@H]2[C@H](CC[C@]3(C)[C@@H]([C@H](C)COC(=O)NS(=O)(=O)c4ccc5ncccc5c4)CC[C@@H]23)[C@@]2(C)CC[C@@H](O)C[C@@H]12 [Example 23]
pEC50: > 7.00
//
compound: CC[C@H]1[C@@H](O)[C@@H]2[C@H](CC[C@]3(C)[C@@H]([C@H](C)CCCOC(=O)N4CCCCC4)CC[C@@H]23)[C@@]2(C)CC[C@@H](O)C[C@@H]12 [Example 165]
pEC50: 5.00 to 6.00
//
compound: CC[C@H]1[C@@H](O)[C@@H]2[C@H](CC[C@]3(C)[C@@H]([C@H](C)CCOC(=O)NS(=O)(=O)C(F)(F)F)CC[C@@H]23)[C@@]2(C)CC[C@@H](O)C[C@@H]12 [Example 108]
pEC50: 5.00 to 6.00
//
compound: CC[C@H]1[C@@H](O)[C@@H]2[C@H](CC[C@]3(C)[C@@H]([C@H](C)COC(=O)NS(=O)(=O)c4cccc(-c5ncco5)c4)CC[C@@H]23)[C@@]2(C)CC[C@@H](O)C[C@@H]12 [Example 44-i]
pEC50: 6.00 to 7.00
//
compound: CC[C@H]1[C@@H](O)[C@@H]2[C@H](CC[C@]3(C)[C@@H]([C@H](C)COC(=O)N4CCC4)CC[C@@H]23)[C@@]2(C)CC[C@@H](O)C[C@@H]12 [Example 200]
pEC50: 5.00 to 6.00
//
compound: CC[C@H]1[C@@H](O)[C@@H]2[C@H](CC[C@]3(C)[C@@H]([C@H](C)CCOC(=O)NS(=O)(=O)CC)CC[C@@H]23)[C@@]2(C)CC[C@@H](O)C[C@@H]12 [Example 98]
pEC50: 6.00 to 7.00
//
compound: CC[C@H]1[C@@H](O)[C@@H]2[C@H](CC[C@]3(C)[C@@H]([C@H](C)CCCOC(=O)NC4CC4)CC[C@@H]23)[C@@]2(C)CC[C@@H](O)C[C@@H]12 [Example 122]
pEC50: 6.00 to 7.00

In the following, a different compound is considered.
Ask: Tell me the measured pEC50 of CC[C@H]1[C@@H](O)[C@@H]2[C@H](CC[C@]3(C)[C@@H]([C@H](C)COC(=O)NS(=O)(=O)c4ccc(-c5ccc(C(C)(C)C)cc5)cc4)CC[C@@H]23)[C@@]2(C)CC[C@@H](O)C[C@@H]12 [Example 34] , please.
Reply: 6.00 to 7.00
